Data provenance is paper PMC8717358.

biological target: IBiD ACTR (Homo sapiens)
pIC50: −log10 of the molar value.
readout_name: pIC50

Hey, IBiD ACTR (Homo sapiens) data for Cc1cc(O)c(C=O)c2c1C(=O)Oc1c(C)c(O)c3c(c1O2)C(O)OC3=O (stereo not shown) : pIC50 came out at < 3.60

* * *

target: Med25 AcID fl-VP16(465–490) (Homo sapiens, UniProt Q71SY5)
readout_name: pIC50
Give bare numbers, as −log10 of the molar value.

The compound listed as `COc1cc(C(=O)O)c2c(c1C)OC(=O)c1c(C)cc(O)c(C=O)c1O2` shows pIC50 equal to 5.41
